Property: Biodistribution, Salivary glands; scope: individual compounds
Tested on: LNCaP xenografts
Test: Biodistribution in LNCaP xenografts
Type: in vivo, mice
Conditions: 1 h after injection
Number in %IA/g, nothing else.

Compound	Target system	Unit label	Biodistribution, Salivary glands
O=C(O)CC[C@H](NC(=O)N[C@@H](CCCCNC(=O)[C@H](Cc1ccc2ccccc2c1)NC(=O)c1ccc(CNC(=O)[C@H](CCC(=O)O)NC(=O)[C@H](CCC(=O)O)NC(=O)c2ccc([18F])nc2)cc1)C(=O)O)C(=O)O [[^18F]PSMA-1007, reference compound]	LNCaP xenografts	%IA/g	2.54
O=C([O-])CN1CCN(CC(=O)[O-])CCN(C(CCC(=O)N[C@H](Cc2ccc(O)c(I)c2)C(=O)N[C@H](Cc2ccccc2)C(=O)N[C@H](CCCCNC(=O)CCCCCCC(=O)NCCCC[C@H](NC(=O)N[C@@H](CCC(=O)O)C(=O)O)C(=O)O)C(=O)O)C(=O)O)CC1.[61Cu+2] (stereo partly drawn) [[^61Cu]Cu-NODAGA-PSMA-I&T, NODAGA-(l-y)fk(sub-KuE)]	LNCaP xenografts	%IA/g	2.01
O=C([O-])CN(CCN(CC(=O)[O-])Cc1cc(CCC(=O)NCCCCCC(=O)NCCCC[C@H](NC(=O)N[C@@H](CCC(=O)O)C(=O)O)C(=O)O)ccc1[O-])Cc1cc(CCC(=O)O)ccc1[O-].[68Ga+3].[OH3+] [[^68Ga]Ga-PSMA-11, reference compound]	LNCaP xenografts	%IA/g	1.56

Field: next compound
Lab note: O=C([O-])CN1CCN(CC(=O)O)CCN(CC(=O)[O-])CCN(C(CCC(=O)N[C@H](Cc2ccc(O)c(I)c2)C(=O)N[C@H](Cc2ccccc2)C(=O)N[C@H](CCCCNC(=O)CCCCCCC(=O)NCCCC[C@H](NC(=O)N[C@@H](CCC(=O)O)C(=O)O)C(=O)O)C(=O)O)C(=O)O)CC1.[61Cu+2] (stereo partly drawn) [[^61Cu]Cu-DOTAGA-PSMA-I&T, DOTAGA-(l-y)fk(sub-KuE)] gave Biodistribution, Salivary glands of 5.60

----------
System: LNCaP xenografts
Assay: Biodistribution in LNCaP xenografts
Type: in vivo, mice
Conditions: 1 h after injection
Property: Biodistribution, Femur; scope: individual compounds
Number in %IA/g, nothing else.

Compound	Biodistribution, Femur / %IA/g
O=C([O-])CN1CCN(CC(=O)O)CCN(CC(=O)[O-])CCN(C(CCC(=O)N[C@H](Cc2ccc(O)c(I)c2)C(=O)N[C@H](Cc2ccccc2)C(=O)N[C@H](CCCCNC(=O)CCCCCCC(=O)NCCCC[C@H](NC(=O)N[C@@H](CCC(=O)O)C(=O)O)C(=O)O)C(=O)O)C(=O)O)CC1.[61Cu+2] (stereo partly drawn) [[^61Cu]Cu-DOTAGA-PSMA-I&T, DOTAGA-(l-y)fk(sub-KuE)]	2.31
O=C([O-])CN(CCN(CC(=O)[O-])Cc1cc(CCC(=O)NCCCCCC(=O)NCCCC[C@H](NC(=O)N[C@@H](CCC(=O)O)C(=O)O)C(=O)O)ccc1[O-])Cc1cc(CCC(=O)O)ccc1[O-].[68Ga+3].[OH3+] [[^68Ga]Ga-PSMA-11, reference compound]	3.69

Lab note: O=C([O-])CN1CCN(CC(=O)[O-])CCN(C(CCC(=O)N[C@H](Cc2ccc(O)c(I)c2)C(=O)N[C@H](Cc2ccccc2)C(=O)N[C@H](CCCCNC(=O)CCCCCCC(=O)NCCCC[C@H](NC(=O)N[C@@H](CCC(=O)O)C(=O)O)C(=O)O)C(=O)O)C(=O)O)CC1.[61Cu+2] (stereo partly drawn) [[^61Cu]Cu-NODAGA-PSMA-I&T, NODAGA-(l-y)fk(sub-KuE)] gave Biodistribution, Femur of 2.73

----------
Tested on: LNCaP xenografts
Assay: Biodistribution in LNCaP xenografts
Format: in vivo, mice
Conditions: 1 h after injection
Property: Biodistribution, Blood; scope: individual molecules
Number in %IA/g, nothing else.

Molecule	Target system	Unit label	Biodistribution, Blood
O=C([O-])CN1CCN(CC(=O)[O-])CCN(C(CCC(=O)N[C@H](Cc2ccc(O)c(I)c2)C(=O)N[C@H](Cc2ccccc2)C(=O)N[C@H](CCCCNC(=O)CCCCCCC(=O)NCCCC[C@H](NC(=O)N[C@@H](CCC(=O)O)C(=O)O)C(=O)O)C(=O)O)C(=O)O)CC1.[61Cu+2] (stereo partly drawn) [[^61Cu]Cu-NODAGA-PSMA-I&T, NODAGA-(l-y)fk(sub-KuE)]	LNCaP xenografts	%IA/g	0.28
O=C([O-])CN1CCN(CC(=O)O)CCN(CC(=O)[O-])CCN(C(CCC(=O)N[C@H](Cc2ccc(O)c(I)c2)C(=O)N[C@H](Cc2ccccc2)C(=O)N[C@H](CCCCNC(=O)CCCCCCC(=O)NCCCC[C@H](NC(=O)N[C@@H](CCC(=O)O)C(=O)O)C(=O)O)C(=O)O)C(=O)O)CC1.[61Cu+2] (stereo partly drawn) [[^61Cu]Cu-DOTAGA-PSMA-I&T, DOTAGA-(l-y)fk(sub-KuE)]	LNCaP xenografts	%IA/g	2.06
O=C(O)CC[C@H](NC(=O)N[C@@H](CCCCNC(=O)[C@H](Cc1ccc2ccccc2c1)NC(=O)c1ccc(CNC(=O)[C@H](CCC(=O)O)NC(=O)[C@H](CCC(=O)O)NC(=O)c2ccc([18F])nc2)cc1)C(=O)O)C(=O)O [[^18F]PSMA-1007, reference compound]	LNCaP xenografts	%IA/g	0.41

Field: next molecule
Lab note: O=C([O-])CN(CCN(CC(=O)[O-])Cc1cc(CCC(=O)NCCCCCC(=O)NCCCC[C@H](NC(=O)N[C@@H](CCC(=O)O)C(=O)O)C(=O)O)ccc1[O-])Cc1cc(CCC(=O)O)ccc1[O-].[68Ga+3].[OH3+] [[^68Ga]Ga-PSMA-11, reference compound] gave Biodistribution, Blood of 0.25

----------
Tested on: LNCaP xenografts
Assay: Biodistribution in LNCaP xenografts
Format: in vivo, mice
Conditions: 1 h after injection
Readout label: Biodistribution, Kidneys (%IA/g)
Number in %IA/g, nothing else.

Study these solved cases before continuing.
Compound	Target system	Biodistribution, Kidneys / %IA/g
O=C([O-])CN1CCN(CC(=O)[O-])CCN(C(CCC(=O)N[C@H](Cc2ccc(O)c(I)c2)C(=O)N[C@H](Cc2ccccc2)C(=O)N[C@H](CCCCNC(=O)CCCCCCC(=O)NCCCC[C@H](NC(=O)N[C@@H](CCC(=O)O)C(=O)O)C(=O)O)C(=O)O)C(=O)O)CC1.[61Cu+2] (stereo partly drawn) [[^61Cu]Cu-NODAGA-PSMA-I&T, NODAGA-(l-y)fk(sub-KuE)]	LNCaP xenografts	118
O=C([O-])CN(CCN(CC(=O)[O-])Cc1cc(CCC(=O)NCCCCCC(=O)NCCCC[C@H](NC(=O)N[C@@H](CCC(=O)O)C(=O)O)C(=O)O)ccc1[O-])Cc1cc(CCC(=O)O)ccc1[O-].[68Ga+3].[OH3+] [[^68Ga]Ga-PSMA-11, reference compound]	LNCaP xenografts	159
O=C([O-])CN1CCN(CC(=O)O)CCN(CC(=O)[O-])CCN(C(CCC(=O)N[C@H](Cc2ccc(O)c(I)c2)C(=O)N[C@H](Cc2ccccc2)C(=O)N[C@H](CCCCNC(=O)CCCCCCC(=O)NCCCC[C@H](NC(=O)N[C@@H](CCC(=O)O)C(=O)O)C(=O)O)C(=O)O)C(=O)O)CC1.[61Cu+2] (stereo partly drawn) [[^61Cu]Cu-DOTAGA-PSMA-I&T, DOTAGA-(l-y)fk(sub-KuE)]	LNCaP xenografts	57.1

Lab note: O=C(O)CC[C@H](NC(=O)N[C@@H](CCCCNC(=O)[C@H](Cc1ccc2ccccc2c1)NC(=O)c1ccc(CNC(=O)[C@H](CCC(=O)O)NC(=O)[C@H](CCC(=O)O)NC(=O)c2ccc([18F])nc2)cc1)C(=O)O)C(=O)O [[^18F]PSMA-1007, reference compound] gave Biodistribution, Kidneys of 100

----------
Test system: LNCaP xenografts
Assay: Biodistribution in LNCaP xenografts
Type: in vivo, mice
Conditions: 1 h after injection
Readout label: Biodistribution, Stomach (%IA/g)
Number in %IA/g, nothing else.

Molecule	Unit label	Reported measurement
O=C([O-])CN1CCN(CC(=O)O)CCN(CC(=O)[O-])CCN(C(CCC(=O)N[C@H](Cc2ccc(O)c(I)c2)C(=O)N[C@H](Cc2ccccc2)C(=O)N[C@H](CCCCNC(=O)CCCCCCC(=O)NCCCC[C@H](NC(=O)N[C@@H](CCC(=O)O)C(=O)O)C(=O)O)C(=O)O)C(=O)O)CC1.[61Cu+2] (stereo partly drawn) [[^61Cu]Cu-DOTAGA-PSMA-I&T, DOTAGA-(l-y)fk(sub-KuE)]	%IA/g	7.77

Lab note: O=C([O-])CN(CCN(CC(=O)[O-])Cc1cc(CCC(=O)NCCCCCC(=O)NCCCC[C@H](NC(=O)N[C@@H](CCC(=O)O)C(=O)O)C(=O)O)ccc1[O-])Cc1cc(CCC(=O)O)ccc1[O-].[68Ga+3].[OH3+] [[^68Ga]Ga-PSMA-11, reference compound] gave Biodistribution, Stomach of 0.69

Lab note: O=C([O-])CN1CCN(CC(=O)[O-])CCN(C(CCC(=O)N[C@H](Cc2ccc(O)c(I)c2)C(=O)N[C@H](Cc2ccccc2)C(=O)N[C@H](CCCCNC(=O)CCCCCCC(=O)NCCCC[C@H](NC(=O)N[C@@H](CCC(=O)O)C(=O)O)C(=O)O)C(=O)O)C(=O)O)CC1.[61Cu+2] (stereo partly drawn) [[^61Cu]Cu-NODAGA-PSMA-I&T, NODAGA-(l-y)fk(sub-KuE)] gave Biodistribution, Stomach of 1.13

Lab note: O=C(O)CC[C@H](NC(=O)N[C@@H](CCCCNC(=O)[C@H](Cc1ccc2ccccc2c1)NC(=O)c1ccc(CNC(=O)[C@H](CCC(=O)O)NC(=O)[C@H](CCC(=O)O)NC(=O)c2ccc([18F])nc2)cc1)C(=O)O)C(=O)O [[^18F]PSMA-1007, reference compound] gave Biodistribution, Stomach of 0.75

The reported measurements were obtained from paper PMC11372264.
